The measurements presented in this section are drawn from patent US20110092544A1.

Test system: Erysiphe graminis f. sp. tritici
Experiment: Test A: wheat powdery mildew, preventive spray on wheat seedlings, visual disease rating
Type: in vivo
Details: 40 ppm (compound number followed by *)
Description: General protocol for preparing test suspensions for Tests A-H: The test compounds were first dissolved in acetone in an amount equal to 3% of the final volume and then suspended at the desired concentration (in ppm) in acetone and purified water (50/50 mix) containing 250 ppm of the surfactant Trem® 014 (polyhydric alcohol esters). […]
Attribute Measured: Test A rating (% disease control) (%)
All answers are understood in %, so give the number only.

Worked cases, answers included:
Compound	Test A rating (% disease control) / %
COc1cc(OC)cc(-c2c(C3CCSCC3)cnc(C)c2-c2ccc(F)cc2)c1 [Compound 84]	96
COc1cc(OC)cc(-c2c(-c3ccc(F)cc3)cnc(C)c2-c2ccc(F)cc2)c1 [Compound 88]	58
COc1cc(OC)cc(-c2c(C(C)=NO)cnc(C)c2-c2c(F)cc(F)cc2F)c1 (single isomer, unassigned) [Compound 114]	89

response.value for COc1cc(OC)cc(-c2c(C(N)=O)cnc(C)c2-c2c(F)cc(F)cc2F)c1 [Compound 120] (field: Test A rating (% disease control)) = 0

response.value for COc1cc(OC)cc(-c2c(C=O)cnc(C)c2-c2c(F)cc(F)cc2F)c1 [Compound 112] (field: Test A rating (% disease control)) = 96

response.value for COc1cc(OC)c(Cl)c(-c2c(-c3ccccc3F)cnc(C)c2-c2c(F)cc(F)cc2F)c1Cl [Compound 136] (field: Test A rating (% disease control)) = 0

response.value for COc1cc(OC)c(Cl)c(-c2c(C(C)(C)O)cnc(C)c2-c2c(F)cc(F)cc2F)c1 [Compound 119] (field: Test A rating (% disease control)) = 99

response.value for COc1cc(OC)cc(-c2c(-c3cccs3)cnc(C)c2-c2c(F)cc(F)cc2F)c1 [Compound 132] (field: Test A rating (% disease control)) = 90
